Exercise: for every item that follows, state its recorded pIC50.
- System: Staphylococcus aureus MW2 (mecA+)
- assay info: IC50 (growth, competition assay)
- condition context: fluorescent label: DsRed; cefoxitin: subinhibitory
Notebook: values listed as pIC50 are -log10 of the concentration (mol/L).

// query Give Staphylococcus aureus MW2 (mecA+) pIC50 for CC1(C)S[C@@H]2[C@H](NC(=O)C(C(=O)O)c3ccccc3)C(=O)N2[C@H]1C(=O)O (some centres undefined) [Carbenicillin disodium]
// result 4.68

// query And for C[C@@H](O[C@H]1OCCN(Cc2n[nH]c(=O)[nH]2)[C@H]1c1ccc(F)cc1)c1cc(C(F)(F)F)cc(C(F)(F)F)c1 [Aprepitant (MK-0869)] ?
// result 4.35

// query And for `NC[C@@H]1O[C@H](C23CC4CC(CC(C4)C2)C3)Cc2c1ccc(O)c2O` ?
// result 4.46

###

- System: Staphylococcus aureus MW2 delta-mecA (mecA-)
- assay info: IC50 (growth, competition assay)
- condition context: fluorescent label: DsRed; cefoxitin: subinhibitory
Structures can show the parent of a compound that is named as a salt.
Could you please mark rule met for values of IC50 below 20 µM and rule not met for values at or above it?

// query Check if IC50 falls below 20 µM for N=C(N)c1ccc(OCCCCCOc2ccc(C(=N)N)cc2)cc1 [NEBUPENT] .
// result rule met

// query And for CSc1ccc2c(c1)N(CCC1CCCCN1C)c1ccccc1S2 (configuration not stated) [Thioridazine hydrochloride] ?
// result rule met

// query And for CC/C(=C(\c1ccccc1)c1ccc(OCCN(C)C)cc1)c1ccccc1 [Tamoxifen] ?
// result rule met

// query And for `c1ccc2c(Cc3c[nH]c4ccccc34)c[nH]c2c1` ?
// result rule not met

// query And for `O=C(Nc1cccc(C(F)(F)F)c1)Nc1cc(S(=O)(=O)NC2CC2)ccc1-c1ccsc1` ?
// result rule met

// query And for CN(C)c1ccc(C(=C2C=CC(=[N+](C)C)C=C2)c2ccc(N(C)C)cc2)cc1 [Crystal violet] ?
// result rule met

// query And for `CCCCCCCCCc1ccc(OCCOCCOCCOCCOCCOCCOCCOCCOCCO)cc1` ?
// result rule met

// query And for `C=CCc1ccc(O)c(-c2cc(CC=C)ccc2O)c1` ?
// result rule met

// query And for `CCCCCCCCCCCCCCCC[N+](C)(C)C` ?
// result rule met

// query And for `O=S(=O)(O)c1cc(I)c(O)c2ncccc12` ?
// result rule not met

// query And for `O=C(O)c1cccnc1Nc1cccc(C(F)(F)F)c1` ?
// result rule not met

// query And for Cc1cc2c(C(C)C)c(O)c(O)c(C=O)c2c(O)c1-c1c(C)cc2c(C(C)C)c(O)c(O)c(C=O)c2c1O [GOSSYPOL] ?
// result rule met

// query And for Cn1cncc1[C@@](N)(c1ccc(Cl)cc1)c1ccc2c(c1)c(-c1cccc(Cl)c1)cc(=O)n2C [Tipifarnib (Zarnestra)] ?
// result rule met

// query And for `C/C(=C\C(=O)Nc1ccccc1C(=O)O)c1ccc2ccccc2c1` ?
// result rule met

// query And for `O=C1NC(c2cccc([N+](=O)[O-])c2)=CCN1c1ccccc1O` ?
// result rule met

// query And for CC1=C(O)C(=O)C=C2C1=CC=C1[C@@]2(C)CC[C@@]2(C)[C@@H]3C[C@](C)(C(=O)O)CC[C@]3(C)CC[C@]12C [Celastrol] ?
// result rule met

// query And for CCCCCCCCOc1ccccc1C(=O)Nc1ccc(C(=O)OCC[N+](C)(CC)CC)cc1 [Otilonium Bromide] ?
// result rule met

// query And for CC[C@H]1OC(=O)C[C@@H](O)[C@H](C)[C@@H](O[C@@H]2O[C@H](C)[C@@H](O[C@H]3C[C@@](C)(O)[C@@H](O)[C@H](C)O3)[C@H](N(C)C)[C@H]2O)[C@@H](CC=O)C[C@@H](C)C(=O)/C=C/C(C)=C/[C@@H]1CO[C@@H]1O[C@H](C)[C@@H](O)[C@@H](OC)[C@H]1OC [TYLAN] ?
// result rule met

// query And for `Oc1ccc(Cl)c2cccnc12` ?
// result rule not met

// query And for `Clc1ccccc1C(c1ccccc1)(c1ccccc1)n1ccnc1` ?
// result rule met

// query And for `Cc1cc(Nc2cc(N3CCN(C)CC3)nc(/C=C/c3ccccc3)n2)n[nH]1` ?
// result rule met

// query And for `Cn1nnnc1SCC1=C(C(=O)O)N2C(=O)[C@@H](NC(=O)[C@H](OC=O)c3ccccc3)[C@H]2SC1` ?
// result rule met

// query And for Clc1ccc(C(Cn2ccnc2)OCc2ccsc2Cl)c(Cl)c1 (configuration not stated) [Tioconazole] ?
// result rule met

// query And for C[C@H]1c2cccc(O)c2C(=O)C2=C(O)[C@]3(O)C(=O)C(C(N)=O)=C(O)[C@@H](N(C)C)[C@@H]3[C@@H](O)[C@@H]21 [PERIOSTAT] ?
// result rule met

// query And for `Cc1cc(C2CCCCC2)n(O)c(=O)c1` ?
// result rule not met

// query And for NC1CCN(c2c(F)cc3c(=O)c(C(=O)O)cn(C4CC4)c3c2Cl)C1 (configuration not stated) ?
// result rule met

// query And for `N#C[C@H](O[C@@H]1O[C@H](CO[C@@H]2O[C@H](CO)[C@@H](O)[C@H](O)[C@H]2O)[C@@H](O)[C@H](O)[C@H]1O)c1ccccc1` ?
// result rule met

// query And for [O-][n+]1ccccc1[S-].[O-][n+]1ccccc1[S-].[Zn+2] [ZINC OMADINE] ?
// result rule met

// query And for `O=C1Nc2ccc(I)cc2/C1=C/c1cc(Br)c(O)c(Br)c1` ?
// result rule met

// query And for `O=C(O)c1ccc(Nc2ncc3c(n2)-c2ccc(Cl)cc2C(c2c(F)cccc2F)=NC3)cc1` ?
// result rule met

// query And for CCCCC[C@H](CC(=O)NO)C(=O)N[C@H](C(=O)N1CCC[C@H]1CO)C(C)C [ACTINONIN] ?
// result rule met

// query And for `C=C[C@]1(C)C[C@@H](OC(=O)CS[C@@H]2C[C@H]3CC[C@@H](C2)N3C)[C@]2(C)[C@H](C)CC[C@]3(CCC(=O)[C@H]32)[C@@H](C)[C@@H]1O` ?
// result rule met

###

- System: Staphylococcus aureus MW2 delta-mecA (mecA-)
- assay info: IC50 (growth, competition assay)
- condition context: fluorescent label: DsRed; cefoxitin: subinhibitory
Structures can show the parent of a compound that is named as a salt.
measured endpoint: IC50

// query Reported IC50, molecule CC[C@H]1OC(=O)C[C@@H](O)[C@H](C)[C@@H](O[C@@H]2O[C@H](C)[C@@H](O)[C@H](N(C)C)[C@H]2O)[C@@H](CCN2C[C@H](C)C[C@H](C)C2)C[C@@H](C)C(=O)/C=C/C(C)=C/[C@@H]1CO[C@@H]1O[C@H](C)[C@@H](O)[C@@H](OC)[C@H]1OC [MICOTIL] : ____
// result 13.4 µM

// query And for `O=C(NC[C@H]1CN(c2ccc(N3CCOCC3=O)cc2)C(=O)O1)c1ccc(Cl)s1` ?
// result < 9.85 µM

// query And for `COc1cc2ncnc(Nc3ccc(Oc4ccccc4)cc3)c2cc1OC` ?
// result 30.6 µM

// query And for CC1=C(O)C(=O)C=C2C1=CC=C1[C@@]2(C)CC[C@@]2(C)[C@@H]3C[C@](C)(C(=O)O)CC[C@]3(C)CC[C@]12C [CELASTROL] ?
// result < 9.85 µM

// query And for `CNCc1ccc(C)c(NC(=O)c2ccc(Nc3nc(-c4ccccc4)c4ccccc4n3)cc2)c1` ?
// result < 9.85 µM

// query And for `CC[C@H]1OC(=O)[C@H](C)[C@@H](O[C@H]2C[C@@](C)(OC)[C@@H](O)[C@H](C)O2)[C@H](C)[C@@H](O[C@@H]2O[C@H](C)C[C@H](N(C)C)[C@H]2O)[C@](C)(O)C[C@@H](C)[C@@H]2N[C@@H](COCCOC)O[C@H]([C@H]2C)[C@]1(C)O` ?
// result < 9.85 µM

// query And for `CC[C@@]1([C@H]2O[C@H]([C@H]3O[C@@](O)(CO)[C@H](C)C[C@@H]3C)C[C@H]2C)CC[C@H]([C@@]2(C)CC[C@]3(C[C@H](O)[C@@H](C)[C@@H]([C@H](C)[C@H](OC)[C@@H](C)C(=O)O)O3)O2)O1` ?
// result < 9.85 µM

// query And for `CCn1nc(C(=O)O)c(=O)c2cc3c(cc21)OCO3` ?
// result 108 µM

// query And for `O=C(/C=C/c1ccc(O)c(O)c1)c1ccc(O)cc1O` ?
// result 21.3 µM

// query And for C=CC1=C(C(=O)O)N2C(=O)[C@@H](NC(=O)/C(=N\O)c3csc(N)n3)[C@H]2SC1 [Cefdinir (Omnicef)] ?
// result < 0.498 µM

// query And for `CCCCCCCCCCCCCCCC(=O)OC[C@H](O)[C@H]1OC(=O)C(O)=C1O` ?
// result < 9.85 µM

// query And for CC(=O)NC1CCSC1=O (stereo unspecified) ?
// result 12.4 µM

// query And for `COc1ccc(Cc2cnc(N)nc2N)cc1OC` ?
// result 27.4 µM

// query And for `CC(C)(C)c1cc(C(C)(C)C)c(NC(=O)c2c[nH]c3ccccc3c2=O)cc1O` ?
// result 1.27 µM

// query And for `CC1(C)CCC2=C(O1)c1ccccc1C(=O)C2=O` ?
// result < 9.85 µM

// query And for `CC(C)(C)c1nc(-c2cccc(NS(=O)(=O)c3c(F)cccc3F)c2F)c(-c2ccnc(N)n2)s1` ?
// result < 9.85 µM

// query And for `COc1ccc(NS(=O)(=O)c2sc3ccc(Cl)cc3c2C)cc1N1CCNCC1` ?
// result 22.7 µM

// query And for `Oc1ccc2ccccc2c1SSc1c(O)ccc2ccccc12` ?
// result < 9.85 µM

// query And for CC1(C)S[C@@H]2[C@H](NC(=O)[C@H](N)c3ccc(O)cc3)C(=O)N2[C@H]1C(=O)O [AMOXIL] ?
// result < 9.85 µM

// query And for N=C(N)c1ccc(OCCCCCOc2ccc(C(=N)N)cc2)cc1 [Pentamidine HCl] ?
// result 23.5 µM

// query And for C=CC1=C(C(=O)O)N2C(=O)[C@@H](NC(=O)/C(=N\O)c3csc(N)n3)[C@H]2SC1 [OMNICEF] ?
// result < 9.85 µM

// query And for `NS(=O)(=O)c1ccc(-n2nc(C(F)(F)F)cc2-c2ccc(Cl)cc2)cc1` ?
// result 26.4 µM

// query And for `N#Cc1cc([N+](=O)[O-])c2sc(C(N)=O)[n+]([O-])c2c1` ?
// result < 9.85 µM

// query And for Cc1cc2nc3c(=O)[nH]c(=O)nc-3n(C[C@H](O)[C@H](O)[C@H](O)CO)c2cc1C [FLAVAXIN] ?
// result > 150 µM

// query And for C[C@H]1COc2c(N3CCN(C)CC3)c(F)cc3c(=O)c(C(=O)O)cn1c23 [LEVAQUIN] ?
// result < 9.85 µM

// query And for `CC1=C2C(=CO[C@H](C)[C@H]2C)C(O)=C(C(=O)O)C1=O` ?
// result 26.2 µM

// query And for Cc1cc(-n2c(=O)[nH]c(=O)n(C)c2=O)ccc1Oc1ccc(SC(F)(F)F)cc1 [BAYCOX] ?
// result 59.8 µM

// query And for `O=C1C(Cl)=C(NCCN2CCOCC2)C(=O)c2ncccc21` ?
// result 28.8 µM

// query And for `Cc1ncc(-c2ccnc(Nc3ccc(S(C)(=O)=O)cc3)n2)n1C(C)C` ?
// result 10.3 µM

// query And for COC(=O)CC[C@@H](C)[C@H]1CC[C@H]2[C@@H]3CC[C@@H]4C[C@H](O)CC[C@]4(C)[C@H]3C[C@H](O)[C@]12C [METHYL DEOXYCHOLATE] ?
// result 13.9 µM

// query And for `Cc1cc(F)c(Nc2ncnc3cc(OCc4ccccc4)ccc23)cc1O` ?
// result 139 µM
